assay name: self-splicing fitness, log relative to wild type (ln ratio); higher = more splicing; Tetrahymena group I intron in knt gene, E. coli kanamycin selection, DiMSum; sequences stand for … in CUCUCU…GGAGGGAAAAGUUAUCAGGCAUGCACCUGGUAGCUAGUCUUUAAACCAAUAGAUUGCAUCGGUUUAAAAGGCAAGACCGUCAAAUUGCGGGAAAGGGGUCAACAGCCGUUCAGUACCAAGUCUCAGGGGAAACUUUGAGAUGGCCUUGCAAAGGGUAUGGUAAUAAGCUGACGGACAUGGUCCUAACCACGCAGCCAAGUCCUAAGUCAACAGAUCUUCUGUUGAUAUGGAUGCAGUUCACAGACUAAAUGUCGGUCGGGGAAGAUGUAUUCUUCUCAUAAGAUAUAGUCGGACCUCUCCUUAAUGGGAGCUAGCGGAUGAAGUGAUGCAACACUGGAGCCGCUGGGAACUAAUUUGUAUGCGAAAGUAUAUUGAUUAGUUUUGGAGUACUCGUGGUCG;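 further: selection with 25 µg/mL kanamycin versus none on LB agar overnight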
assay context: 37 °C
Decide by self-splicing fitness (ln): equal to or exceeding -0.7 means true (1), less means false (0).

Some solved entries appear below for comparison.
>>> print(df.to_string())
         entry_sequence      class
0  UCGAAGCAAUAUUACGAGGA  false (0)
1  UUGGAGCAAUAUUACGUGCA  false (0)
2  CGGAAGCAAUAUUACGAGCU  false (0)
3  UGCAAGCAAUAUUACGAAUA  false (0)
4  UAGCAGCAAUAUUACGACUU   true (1)
5  CGUGAGCAAUAUUACGACGG   true (1)
6  UCUGAGCAAUAUUACGUUUG  false (0)
7  AGCAAGCAAUAUUACGUCGA   true (1)

input: Evaluate `GCUCAGCAAUAUUACGGGGU` : self-splicing fitness (ln) at minimum -0.7?
output: false (0)

input: Evaluate `UGAUAGCAAUAUUACGAAGA` : self-splicing fitness (ln) at minimum -0.7?
output: false (0)

input: Evaluate `UCACAGCAAUAUUACGGCGA` : self-splicing fitness (ln) at minimum -0.7?
output: true (1)

The measurements presented in this section are drawn from the supplement of paper PMC7877785.
